Documented IC80 (µg/ml) with constrains across a set of binders
# subject-of-test: HIV Env, isolate CAP210.2.00.E8 (HIV)
# protocol-description: cell-based or functional assay
Kindly provide the numeric value in µg/mL only, without the unit symbol.

As a guide, the following entries are already answered.
>  <binder>
ePGDM13 (antibody, V domains shown) VH: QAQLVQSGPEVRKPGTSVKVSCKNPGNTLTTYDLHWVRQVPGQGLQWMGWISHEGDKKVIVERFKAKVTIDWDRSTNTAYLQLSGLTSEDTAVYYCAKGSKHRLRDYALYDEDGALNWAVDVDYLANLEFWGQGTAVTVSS VL: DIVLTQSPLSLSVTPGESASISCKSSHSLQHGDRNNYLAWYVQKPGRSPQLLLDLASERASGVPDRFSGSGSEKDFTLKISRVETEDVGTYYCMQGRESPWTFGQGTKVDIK

>  <reading>
0.538

$$$$
>  <binder>
PGDM1400 (antibody, V domains shown) VH: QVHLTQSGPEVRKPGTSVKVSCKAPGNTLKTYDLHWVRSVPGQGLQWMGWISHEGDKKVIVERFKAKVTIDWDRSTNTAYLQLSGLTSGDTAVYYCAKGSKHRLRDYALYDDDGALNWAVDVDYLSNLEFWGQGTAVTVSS VL: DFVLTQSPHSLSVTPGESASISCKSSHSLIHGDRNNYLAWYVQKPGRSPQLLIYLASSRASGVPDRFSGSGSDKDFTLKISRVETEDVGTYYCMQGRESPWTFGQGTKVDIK

>  <reading>
1.32

$$$$
>  <binder>
ePGDM5 (antibody, V domains shown) VH: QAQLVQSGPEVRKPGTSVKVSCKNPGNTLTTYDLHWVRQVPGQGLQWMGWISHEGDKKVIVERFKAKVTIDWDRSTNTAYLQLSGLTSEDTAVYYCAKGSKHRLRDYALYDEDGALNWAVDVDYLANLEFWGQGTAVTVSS VL: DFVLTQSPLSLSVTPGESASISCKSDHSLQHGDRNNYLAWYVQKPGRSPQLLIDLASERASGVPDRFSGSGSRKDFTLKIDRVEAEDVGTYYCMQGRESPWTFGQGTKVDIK

>  <reading>
0.226

$$$$

Continue with the binder presented below.
// IC80 (µg/ml) with constrains value for ePGDM9 (antibody, V domains shown) VH: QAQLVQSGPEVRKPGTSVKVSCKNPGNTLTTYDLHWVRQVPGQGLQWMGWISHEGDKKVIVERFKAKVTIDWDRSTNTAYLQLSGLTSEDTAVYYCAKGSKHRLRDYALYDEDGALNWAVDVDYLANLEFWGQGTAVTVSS VL: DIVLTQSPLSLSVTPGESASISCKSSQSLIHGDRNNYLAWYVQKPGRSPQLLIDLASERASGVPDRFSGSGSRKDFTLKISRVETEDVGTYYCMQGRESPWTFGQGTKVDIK : 0.221

Values were extracted from patent US20230134571A1.
